# Assay Notes: chemical genetic growth profiling, strain panel (AID 1159580);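 note: tested at 20 µM; growth read once vehicle control cultures reached saturation at 30 °C; 1 = growth at the plate median or of vehicle wells; lower values mean less growth of the strain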
# Condition Label: S. cerevisiae deletion strains, growth OD, locus YGL078C, strain dbp3, active compounds read low
Out of some 5,500 compounds screened, about 2,000 (36%) were called active. Another 18% or so got no clear call; they are omitted. This is one part of the list. Where a SMILES comes first, the peptide text is derived from it.
Recorded Endpoint: normalized growth
One number for each entry.

{"Compound": "CN=C(N)NCCCC(N)C(=O)O (stereo unspecified)", "normalized growth": 1.01}
{"Compound": "O=c1cccc2n1CC1CC2CN2CCCC[C@@H]12 (stereo partly specified)", "normalized growth": 0.991}
{"Compound": "CCCCCCCCCCCC(=O)OCC(COP(=O)(O)OCC(O)COP(=O)(O)OCC(COC(=O)CCCCCCCCCCC)OC(=O)CCCCCCCCCCC)OC(=O)CCCCCCCCCCC (stereo unspecified)", "normalized growth": 1.02}
{"Compound": "COc1cc(C)c2c(=O)cc(-c3ccccc3)oc2c1", "normalized growth": 0.972}
{"Compound": "CC(=O)N[C@@H](CCC(=O)O)C(=O)O", "normalized growth": 0.996}

Below is a list of compounds. For each, state its recorded normalized growth.
1. CC(=O)N[C@@H](CC(=O)O)C(=O)N[C@@H](CCC(=O)O)C(=O)O (Ac-Asp-Glu-OH)
2. Cc1cc(CC(=O)O)n(C)c1C(=O)c1ccc(Cl)cc1
3. Cc1nnc(NS(=O)(=O)c2ccc(N)cc2)s1
4. Cc1oncc1C(=O)Nc1ccc(C(F)(F)F)cc1
5. CN(C)C(=O)Oc1ccc[n+](C)c1

Reply |
1: 0.993; 2: 1; 3: 1; 4: 0.991; 5: 1.01

Ask | Which value of normalized growth has been reported for CC(=O)O[C@]1(C)CC[C@@]23CC1C(C)(C)[C@@H]2CC[C@H]3C in the records?
Reply | 1.01

----------
# Assay Notes: chemical genetic growth profiling, strain panel (AID 1159580);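 note: tested at 20 µM; growth read once vehicle control cultures reached saturation at 30 °C; 1 = growth at the plate median or of vehicle wells; lower values mean less growth of the strain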
# Condition Label: S. cerevisiae deletion strains, growth OD, locus YPR167C, strain met16
The campaign covered roughly 5,500 compounds. About 2,000 (36%) were called active. About 18% were inconclusive and are not listed. Rule as the data show it: active = normalized growth mostly below about 0.91 (no sharp cut-off); inconclusive = no clear call, values can overlap the other calls; inactive = mostly above about 0.92. Some of the results follow.
Could you please pick one outcome from this set? label 1 (active), label 0 (inactive)

{"Compound": "CC(=O)OCC(=O)[C@@]1(O)CCC2C3CCC4=CC(=O)C=CC4(C)C3[C@@H](O)C[C@@]21C (some centres undefined)", "Assigned Class": "label 0"}

Ask | Status in this test for CC(C)=CC1C(C(=O)OCc2cccc(Oc3ccccc3)c2)C1(C)C (centres undefined) ?
Reply | label 0

Ask | Status in this test for c1ccc2c(CC3=NCCN3)cccc2c1 ?
Reply | label 0

Ask | Status in this test for COc1ccc2c(=O)c(OC)c(-c3ccccc3)oc2c1 ?
Reply | label 1

----------
# Assay Notes: chemical genetic growth profiling, strain panel (AID 1159580);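 note: tested at 20 µM; growth read once vehicle control cultures reached saturation at 30 °C; 1 = growth at the plate median or of vehicle wells; lower values mean less growth of the strain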
# Condition Label: S. cerevisiae deletion strains, growth OD, locus YDR159W, strain sac3, active compounds read low
About 2,000 (36%) of roughly 5,500 compounds were called active. About 18% were inconclusive and are not listed. This is one part of the list.
Give normalized growth for every item shown.
Give bare numbers.

{"Molecule": "COc1cc2c(cc1OC)C1(O)C(=O)c3ccc(O)c(C(=O)O)c3OC1CO2 (centres undefined)", "normalized growth": 1}
{"Molecule": "CC(C)(S)[C@@H](N)C(=O)O", "normalized growth": 0.994}
{"Molecule": "CC(=O)OCC(=O)[C@@]1(O)CCC2C3CCC4=CC(=O)C=CC4(C)C3[C@@H](O)C[C@@]21C (some centres undefined)", "normalized growth": 1}
{"Molecule": "CC(=O)O[C@H]1CC[C@@]2(C)C(C[C@@H](OC(C)=O)[C@]3(C)C2CC[C@@]2(C)[C@H](c4ccoc4)OC(=O)[C@H]4O[C@]423)C1(C)C (some centres undefined)", "normalized growth": 0.983}
{"Molecule": "O=C(O)C(O)C(O)C(=O)O (centres undefined)", "normalized growth": 0.975}

Below is a list of molecules. For each, state its recorded normalized growth.
1. CC(=O)Oc1ccc2c(c1)CCC1C2CC[C@]2(C)C(=O)CCC12 (some centres undefined)
2. CC(C)=CC1C(C(=O)OCc2cccc(Oc3ccccc3)c2)C1(C)C (centres undefined)
3. NC1(C(=O)O)CC1
4. CC1(C)C(=O)[C@@H]2O[C@@H]2[C@@]2(C)C1C[C@@H](O)[C@]1(C)C2CC[C@@]2(C)[C@H](c3ccoc3)OC(=O)C3OC321 (some centres undefined)

Reply |
1: 0.979; 2: 1.02; 3: 1.02; 4: 0.998
